# Test system: anti-M2 human monoclonal antibody Z3G1
# Assay type: binding
Recorded Signal (peptides that show specific binding to Z3G1) values for a group of substances are listed next.
measurementType: Signal (peptides that show specific binding to Z3G1)

{"columns": ["substance", "assayedSystem", "reportedResult"],
 "data": [
  ["1553 (CLLTEVGSLLCEV; epitope peptide) [compound 1553]", "anti-M2 human monoclonal antibody Z3G1", 2168],
  ["566 (SLLTEVCTPIRNEWGCRCNDSSD; epitope peptide) [compound 566]", "anti-M2 human monoclonal antibody Z3G1", 1210],
  ["302 (ASLLTEVGSCLTEV; epitope sequence) [compound 302]", "anti-M2 human monoclonal antibody Z3G1", 2770],
  ["457 (SLLTEVETPMRNEWGCRCNDSSD; epitope peptide) [compound 457]", "anti-M2 human monoclonal antibody Z3G1", 2297],
  ["686 (SLLTEVETPIRNEWGCRLNDSSD; epitope peptide) [compound 686]", "anti-M2 human monoclonal antibody Z3G1", 2363],
  ["1571 (NLLTEVETPIRNEWGCRCNDSSD; epitope peptide) [compound 1571]", "anti-M2 human monoclonal antibody Z3G1", 2135],
  ["299 (SLLTEVGCLCTCV; epitope peptide) [compound 299]", "anti-M2 human monoclonal antibody Z3G1", 2346],
  ["1576 (YLLTEVETPIRNEWGCRCNDSSD; epitope peptide) [compound 1576]", "anti-M2 human monoclonal antibody Z3G1", 1882],
  ["712 (SLLTEVETPIRNDWGCRCNDSSD; epitope peptide) [compound 712]", "anti-M2 human monoclonal antibody Z3G1", 2324],
  ["328 (SLETEVETPIRNEWGCRCNDSSD; epitope peptide) [compound 328]", "anti-M2 human monoclonal antibody Z3G1", 1963],
  ["1582 (SLLGEVETPIRNEWGCRCNDSSD; epitope peptide) [compound 1582]", "anti-M2 human monoclonal antibody Z3G1", 2301],
  ["534 (SLLTEVEKPIRNEWGCRCNDSSD; epitope peptide) [compound 534]", "anti-M2 human monoclonal antibody Z3G1", 2505],
  ["366 (SLLTEVETPIRNEWWCRCNDSSD; epitope peptide) [compound 366]", "anti-M2 human monoclonal antibody Z3G1", 2406],
  ["662 (SLLTEVETPIRNFWGCRCNDSSD; epitope peptide) [compound 662]", "anti-M2 human monoclonal antibody Z3G1", 2417],
  ["605 (SLLTEVETPIRNMWGCRCNDSSD; epitope peptide) [compound 605]", "anti-M2 human monoclonal antibody Z3G1", 2455],
  ["582 (SLLTEVETPIRAEWGCRCNDSSD; epitope peptide) [compound 582]", "anti-M2 human monoclonal antibody Z3G1", 2306],
  ["312 (TLLTEVETPIRNEWGCRCNDSSD; epitope peptide) [compound 312]", "anti-M2 human monoclonal antibody Z3G1", 2510],
  ["644 (SLLTEVETPIRNEWGVRCNDSSD; epitope peptide) [compound 644]", "anti-M2 human monoclonal antibody Z3G1", 2444]
]}

----------
# Tested on: anti-M2 human monoclonal antibody Z3G1
# Format: binding
Recorded Signal (peptides that bind to Z3G1) values for a group of substances are listed next.
measurementType: Signal (peptides that bind to Z3G1)

{"columns": ["substance", "measurementType", "reportedResult"],
 "data": [
  ["1367 (SLLCEVCTPIRNE; epitope peptide) [compound 1367]", "Signal (peptides that bind to Z3G1)", 2283],
  ["1341 (MSLLCEVGMSLLCEV; epitope peptide) [compound 1341]", "Signal (peptides that bind to Z3G1)", 2851],
  ["1388 (SLLCEVETPIRNECG; epitope peptide) [compound 1388]", "Signal (peptides that bind to Z3G1)", 2107],
  ["1269 (MSVLTEVETPIRNEWGCRCN; epitope peptide) [compound 1269]", "Signal (peptides that bind to Z3G1)", 2111],
  ["1346 (MCLLTEVGMSLLTCV; epitope peptide) [compound 1346]", "Signal (peptides that bind to Z3G1)", 1098],
  ["1272 (MSLHTEVETPIRNEWGCRCN; epitope peptide) [compound 1272]", "Signal (peptides that bind to Z3G1)", 2058],
  ["426 (SLLTEVETPIRNEWGCRCNDSLD; epitope peptide) [compound 426]", "Signal (peptides that bind to Z3G1)", 2400],
  ["409 (SLLTEVETPIRNEWGCRCNDKSD; epitope peptide) [compound 409]", "Signal (peptides that bind to Z3G1)", 2484]
]}
